B1: PPFIA4 (parent)
chain: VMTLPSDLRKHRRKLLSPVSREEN

Variants of: B1
TEST: protein stability index of a GFP-peptide fusion (GPS, HEK-293T) (PSI 1-6); higher = more stable;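 note: lentivirally expressed fusions sorted by FACS into six bins by GFP to DsRed ratio, PSI derived from sequencing read proportions per bin multiplied by bin number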
MEASUREMENT_SETUP: c terminus: a fixed tail appended
The reader will find reported protein stability index values listed item by item below.
ASSAY_READOUT: protein stability index

INSERT INTO assay_data (mutation_string, assay_value) VALUES
  ('L15S', 4.94),
  ('H11N', 4.02),
  ('R12W', 2.73);
